System: CAMK2D;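 further: KINOMEscan kinase panel screen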
TEST_CONDITIONS: concentration: 1 μM, replicates: in singlicate; n = 1
PROPERTY: %Inh (%)
Numbers only, in %.

Examples from the recorded data:
MOLECULE	ASSAYED_TARGET	%Inh / %
O=c1cc(N2CCOCC2)nc2n(Cc3cccc(Cl)c3)ccn12	CAMK2D	0
CC(C)N1CCC(n2cnc(-c3ccc(F)cc3)c2-c2ccnc(N)n2)CC1	CAMK2D	1
Fc1ccc(Nc2nccc(-c3c(-c4ccc(Cl)cc4)nn4ncccc34)n2)cc1F	CAMK2D	0
CSc1ccc(NC2=C(c3ccccc3Cl)C(=O)NC2=O)cc1	CAMK2D	28

Dear colleague, could you please provide %Inh for the molecules listed below?
1. CC(=O)Nc1n[nH]c2ncc(-c3ccccc3)cc12
2. COc1ccc(Nc2nccc(N3CCC(NC(=O)c4cccc(NC(C)=O)c4)C3)n2)cc1 (stereo not shown)
3. COc1ccc(Nc2nccc(N3CCC(NC(=O)Nc4ccc5c(c4)OCO5)C3)n2)cc1 (stereo not shown)

[reply]
1. 0
2. 8
3. 7

The measured values listed here are drawn from paper PMC5540273.
